Where do these numbers come from? They come from ChEMBL document CHEMBL1158507.

Measured microsomal CLint values are reported for all entries that follow.
- assay_text: Intrinsic clearance in rat liver microsomes
- Format: ADME, Microsome
Give the value in µL/min/mg but do not write µL/min/mg after it.

1) O=C(c1cc(Cc2c[nH]c(=O)c3cc(Cl)c(Cl)n23)ccc1F)N1CCC2(CCCN2)CC1 :: 65

Notebook: CCC1(C(=O)N2CCN(C(=O)c3cc(Cc4n[nH]c(=O)c(C)c4C)ccc3F)CC2)CCCN1 (configuration not stated) , microsomal CLint read as 6

Notebook: CNC(C)(C)C(=O)N1CCN(C(=O)c2cc(Cc3n[nH]c(=O)c(C)c3C)ccc2F)CC1 , microsomal CLint read as 7

Notebook: CNC(C)(C)C(=O)N1CCN(C(=O)c2cc(Cc3c[nH]c(=O)c4cc(Cl)c(Cl)n34)ccc2F)CC1 , microsomal CLint read as 122

###

Measured dose excreted at 24 h values are reported for all entries that follow.
- assay_text: Drug excretion in iv dosed rat urine after 24 hrs
- Format: ADME, organism-based
- condition_notes: read-out: Activity
Give the value in % but do not write % after it.

1. Cc1c(Cc2ccc(F)c(C(=O)N3CCC4(CCCN4)CC3)c2)n[nH]c(=O)c1C :: 37

Read the next record carefully.
Notebook: Cc1c(Cc2ccc(F)c(C(=O)N3CCN(C(=O)[C@@]4(C)CCN4)CC3)c2)n[nH]c(=O)c1C , dose excreted at 24 h read as 11

###

Record type: pIC50 measurement. Applies to: Poly [ADP-ribose] polymerase 1 (Homo sapiens, UniProt P09874)
// pIC50: -log10(molar conc.)

Record excerpt, results attached:
1) Cc1c(Cc2ccc(F)c(C(=O)N3CCN(C(=O)C4CCNC4)CC3)c2)n[nH]c(=O)c1C (configuration not stated) :: 8.41
2) Cc1c(Cc2ccc(F)c(C(=O)N3CCN(C(=O)C4(C)CCCCN4)CC3)c2)n[nH]c(=O)c1C (configuration not stated) :: 7.92
3) CCNC1(C(=O)N2CCN(C(=O)c3cc(Cc4n[nH]c(=O)c(C)c4C)ccc3F)CC2)CCCC1 :: 8.51
4) CCC1(C(=O)N2CCN(C(=O)c3cc(Cc4n[nH]c(=O)c(C)c4C)ccc3F)CC2)CCCN1 (configuration not stated) :: 8.42
5) Cc1c(Cc2ccc(F)c(C(=O)N3CCN(C(=O)C4(N(C)C)CC4)CC3)c2)n[nH]c(=O)c1C :: 8.24
6) Cc1c(Cc2ccc(F)c(C(=O)N3CCN(C(=O)C(C)(C)N(C)C)CC3)c2)n[nH]c(=O)c1C :: 8.74

Read the next record carefully.
For Cc1c(Cc2ccc(F)c(C(=O)N3CCN(C(=O)C4(C)CCCN4)CC3)c2)n[nH]c(=O)c1C (configuration not stated) on Poly [ADP-ribose] polymerase 1 (Homo sapiens, UniProt P09874), measured pIC50 was 8.55

###

- assay_text: Drug excretion in iv dosed rat urine after 72 hrs
- Assay type: ADME, organism-based
- condition_notes: read-out: Activity
reported_endpoint: dose excreted at 72 h
Report as: number unit

Notebook: Cc1c(Cc2ccc(F)c(C(=O)N3CCN(C(=O)C4(C)CCCN4)CC3)c2)n[nH]c(=O)c1C (stereo unspecified) , dose excreted at 72 h read as 82%

###

- assayed_target: CYP3A4 (Homo sapiens)
- Sequence (P08684 whole entry): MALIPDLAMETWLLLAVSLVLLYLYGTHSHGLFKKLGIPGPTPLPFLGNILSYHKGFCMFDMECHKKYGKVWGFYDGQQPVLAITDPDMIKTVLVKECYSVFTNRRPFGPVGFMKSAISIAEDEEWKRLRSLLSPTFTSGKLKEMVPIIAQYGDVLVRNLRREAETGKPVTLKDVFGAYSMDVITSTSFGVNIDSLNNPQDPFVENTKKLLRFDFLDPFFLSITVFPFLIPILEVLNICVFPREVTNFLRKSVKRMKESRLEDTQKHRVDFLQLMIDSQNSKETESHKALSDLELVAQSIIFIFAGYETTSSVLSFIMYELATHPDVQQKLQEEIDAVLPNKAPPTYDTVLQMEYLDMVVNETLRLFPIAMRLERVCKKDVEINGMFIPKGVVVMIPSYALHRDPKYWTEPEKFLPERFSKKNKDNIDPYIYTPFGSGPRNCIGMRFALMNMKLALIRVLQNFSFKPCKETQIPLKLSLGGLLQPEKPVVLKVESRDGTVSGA
- assay_text: Inhibition of CYP3A4 at 10 uM
- Format: ADME
Measured inhibition at 10 µM values are reported for all entries that follow.
Give the value in % but do not write % after it.

1. Cc1c(Cc2ccc(F)c(C(=O)N3CCN(C(=O)C4(Cc5ccc(F)cc5)CCCN4)CC3)c2)n[nH]c(=O)c1C (configuration not stated) :: 73

Read the next record carefully.
For CNC(C)(C)C(=O)N1CCN(C(=O)c2cc(Cc3c[nH]c(=O)c4cc(Cl)c(Cl)n34)ccc2F)CC1 on CYP3A4 (Homo sapiens), measured inhibition at 10 µM was 25
